TARGET_OF_ASSAY: Ba/F3 cell EGFR Exon20 ins NPH (Homo sapiens, UniProt P00533, INS773NPH)
Construct: expressed in transfected cells; host or cells: Ba/F3
METHOD_SUMMARY: Ba/F3 cell proliferation suppression, EGFR Exon20 ins NPH
Assay type: cell-based
MEASUREMENT_PARAMETERS: GI50 class; Ba/F3 cell line with NPH inserted at Exon20 of EGFR; 72 hours
READOUT_NAME: Ba/F3 (NPH) Activity

>>> result("C=CC(=O)Nc1cc(Nc2cc(N3OCC[C@@H]3c3ccccc3)ncn2)c(OC)cc1N1CCN(CCN(C)C)CC1 [Example 278]")
"A (GI50 < 50 nM)"
>>> result("C=CC(=O)Nc1cc(Nc2cc(N3OCC[C@@H]3c3cc(F)cc(F)c3)ncn2)c(OC)cc1N1C[C@H]2CCN(C)[C@H]2C1 [compound 890]")
"A (GI50 < 50 nM)"

Where do these numbers come from? They come from patent US12157730B2.
